# tested_system: Fibroblast growth factor receptor 3 (Homo sapiens, UniProt P22607)
# Sequence (P22607 whole entry): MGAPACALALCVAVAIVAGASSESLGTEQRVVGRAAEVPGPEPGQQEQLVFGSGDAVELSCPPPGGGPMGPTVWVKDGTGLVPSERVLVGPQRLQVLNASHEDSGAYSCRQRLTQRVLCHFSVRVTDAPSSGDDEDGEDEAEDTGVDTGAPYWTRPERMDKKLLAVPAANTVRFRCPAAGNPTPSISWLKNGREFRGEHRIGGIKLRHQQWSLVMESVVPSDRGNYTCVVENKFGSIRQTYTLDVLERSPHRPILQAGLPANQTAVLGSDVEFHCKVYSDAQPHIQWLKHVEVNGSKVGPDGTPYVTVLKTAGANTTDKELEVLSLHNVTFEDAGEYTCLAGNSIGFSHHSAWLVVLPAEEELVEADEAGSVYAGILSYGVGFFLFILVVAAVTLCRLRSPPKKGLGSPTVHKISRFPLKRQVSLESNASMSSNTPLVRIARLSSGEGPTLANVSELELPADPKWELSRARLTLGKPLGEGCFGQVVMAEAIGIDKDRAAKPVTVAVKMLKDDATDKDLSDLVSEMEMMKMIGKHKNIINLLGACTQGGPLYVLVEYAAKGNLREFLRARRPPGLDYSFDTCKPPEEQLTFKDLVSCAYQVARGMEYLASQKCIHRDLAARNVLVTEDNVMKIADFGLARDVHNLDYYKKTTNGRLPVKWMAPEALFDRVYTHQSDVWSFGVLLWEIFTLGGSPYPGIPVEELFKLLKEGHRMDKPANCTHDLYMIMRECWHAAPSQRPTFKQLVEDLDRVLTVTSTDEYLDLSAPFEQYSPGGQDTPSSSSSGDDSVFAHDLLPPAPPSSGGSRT
metric: IC50 (nM)
Give a bare numeral; the unit nM is implied.

# input Fill: IC50 (Fibroblast growth factor receptor 3 (Homo sapiens, UniProt P22607)) for this compound `C=CC(=O)Nc1cccc(C)c1Nc1ncc2cc(-c3c(Cl)c(OC)cc(OC)c3Cl)ccc2n1`
# output 150

Entry source: ChEMBL document CHEMBL4400505
